The measured values listed here are drawn from patent US20240092930A1.

# target_of_assay: T1, human Trop-2 on the surface of cells (CHO/Trop-2 cells; BxPC-3 cells; NCI-N87 cells) (human, UniProt P09758 27-323)
# T1 sequence (looked up): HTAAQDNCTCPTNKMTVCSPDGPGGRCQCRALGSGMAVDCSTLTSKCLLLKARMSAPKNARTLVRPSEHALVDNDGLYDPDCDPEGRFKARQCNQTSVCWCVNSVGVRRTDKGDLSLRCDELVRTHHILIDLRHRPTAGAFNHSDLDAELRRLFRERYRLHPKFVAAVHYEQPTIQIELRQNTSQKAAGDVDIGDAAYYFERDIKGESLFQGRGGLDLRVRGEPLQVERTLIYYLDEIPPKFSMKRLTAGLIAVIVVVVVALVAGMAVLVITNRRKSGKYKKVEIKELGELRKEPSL
# assay_name: cell-based or functional assay
test_readout: Internalization percentage, 1 h, BXPC-3 cells, FACS
Value and unit, in that order.

# binder, reported_result
rows = [
    ("ch11-4-SN38 (antibody, V domains shown, CL2A-SN-38 conjugated to the DTT-reduced antibody; 7.5 SN38 per antibody; sites not stated, also called ch11-4 labeled with SN38) VH: QVQLQQPGAELVRPGASVNLSCKASGYTFTSYWINWVKQRPGQGLEWIGNIYPSNSYTNYNQKFKDTATLTVDKSSSTAYMQLSSPTSEDSAVYFCSSYRSDGFAYWGQGTLVTVSA VL: DILLTQSPAILSVSPGEKVSFSCRASQNIGTSIHWYQQRTNGSPRLLIEFASESISGIPSRFSGSGSGTDFTLTINSVESEDIADYYCQQSNSWPFTFGGGTKLEIK", "51.1%"),
]

The reported Internalization percentage, 1 h, BXPC-3 cells, FACS of the binder h23-12-SN38 (antibody, human IgG1, kappa, V domains shown, CL2A-SN-38 conjugated to the DTT-reduced antibody; 7.5 SN38 per antibody; sites not stated, also called h23-12 labeled with SN38) VH: QVQLVQSGAEVKKPGASVKVSCKASGYTFTSYWMHWVRQAPGQGLEWMGEITPSDNYGSYNQKFKGRVTITRDTSTSTAYMELSSLRSEDTAVYYCARGHGNYVSFDYWGQGTLVTVSS VL: DIQMTQSPSSLSASVGDRVTITCRASQDISNYLNWYQQKPGKAPKLLIYYTSRLESGVPSRFSGSGSGTDFTLTISSLQPEDFATYFCQQGYTLPPYTFGQGTKLEIKR was 20.1%
